# System: C. albicans
# RUN DESCRIPTION: Minimum inhibitory concentration broth double-dilution assay
# Type: cell-based, Candida albicans
# ASSAY CONTEXT: #7 C. albicans T-2076 (DP-194); 24 h, 30 °C
*1 amine or outer side, *2 acyl side, *3 side chain or, on linkers, in order; H or OH if unused. Where a SMILES comes first, the peptide text is derived from it. Bridges are numbered along the chain shown (N, C = ends). [ ]: non-standard residue; d: D form. The star is where a group is joined. hTyr(3S-OH,4S-OH,3'-OSO3H) = N[C@H](C(=O)O)[C@H](O)[C@@H](O)c1ccc(O)c(OS(=O)(=O)O)c1; Orn(4R-OH,5R-OH) = O=C([C@H](C[C@@H](O)[C@@H](O)N[*:3])N[*:1])[*:2]; Pro(3S-OH,4S-Me) = C[C@H]1CN[C@H](C(=O)O)[C@H]1O; X1 = CCCCCOc1ccc(-c2cc(-c3ccc(C(=O)*)cc3)no2)cc1; Gln(3R-OH) = NC(=O)C[C@@H](O)[C@H](N)C(=O)O; Hyp = O=C(O)[C@@H]1C[C@@H](O)CN1

{"columns": ["COMPOUND", "MIC / µg/mL"],
 "data": [
  ["CCCCCOc1ccc(-c2cc(-c3ccc(C(=O)N[C@H]4C[C@@H](O)[C@@H](O)NC(=O)[C@@H]5[C@@H](O)[C@@H](C)CN5C(=O)[C@H]([C@H](O)CC(N)=O)NC(=O)[C@H]([C@H](O)[C@@H](O)c5ccc(O)c(OS(=O)(=O)O)c5)NC(=O)[C@@H]5C[C@@H](O)CN5C(=O)[C@H]([C@@H](C)O)NC4=O)cc3)no2)cc1 [MCF, micafungin] (X1-[Orn(4R-OH,5R-OH)]T[Hyp][hTyr(3S-OH,4S-OH,3'-OSO3H)][Gln(3R-OH)][Pro(3S-OH,4S-Me)]; lactam 1-C)", 1]
]}

----------
# Test system: C. glabrata
# RUN DESCRIPTION: Minimum inhibitory concentration broth double-dilution assay
# Type: cell-based, Candida glabrata
# ASSAY CONTEXT: #29 C. glabrata TGL00109; 24 h, 30 °C
*1 amine or outer side, *2 acyl side, *3 side chain or, on linkers, in order; H or OH if unused. Where a SMILES comes first, the peptide text is derived from it. Bridges are numbered along the chain shown (N, C = ends). [ ]: non-standard residue; d: D form. The star is where a group is joined. Orn(4R-OH,5R-OCH2CH2NMe3+) = C[N+](C)(C)CCO[C@@H](N[*:3])[C@H](O)C[C@H](N[*:1])C(=O)[*:2]; hTyr(3S-OH,4S-OH,3'-OSO3H) = N[C@H](C(=O)O)[C@H](O)[C@@H](O)c1ccc(O)c(OS(=O)(=O)O)c1; pTerphenylCO(4''-OnC5H11) = CCCCCOc1ccc(-c2ccc(-c3ccc(C(=O)*)cc3)cc2)cc1; Orn(4R-OH,5R-OH) = O=C([C@H](C[C@@H](O)[C@@H](O)N[*:3])N[*:1])[*:2]; Pro(3S-OH,4S-Me) = C[C@H]1CN[C@H](C(=O)O)[C@H]1O; X1 = CCCCCOc1ccc(-c2cc(-c3ccc(C(=O)*)cc3)no2)cc1; hTyr(3R-OH) = N[C@H](C(=O)O)[C@H](O)Cc1ccc(O)cc1; Gln(3R-OH) = NC(=O)C[C@@H](O)[C@H](N)C(=O)O; Hyp = O=C(O)[C@@H]1C[C@@H](O)CN1

{"columns": ["COMPOUND", "MIC"],
 "data": [
  ["CCCCCOc1ccc(-c2cc(-c3ccc(C(=O)N[C@H]4C[C@@H](O)[C@@H](O)NC(=O)[C@@H]5[C@@H](O)[C@@H](C)CN5C(=O)[C@H]([C@H](O)CC(N)=O)NC(=O)[C@H]([C@H](O)[C@@H](O)c5ccc(O)c(OS(=O)(=O)O)c5)NC(=O)[C@@H]5C[C@@H](O)CN5C(=O)[C@H]([C@@H](C)O)NC4=O)cc3)no2)cc1 [MCF, micafungin] (X1-[Orn(4R-OH,5R-OH)]T[Hyp][hTyr(3S-OH,4S-OH,3'-OSO3H)][Gln(3R-OH)][Pro(3S-OH,4S-Me)]; lactam 1-C)", "> 64 mg/L"],
  ["CCCCCOc1ccc(-c2ccc(-c3ccc(C(=O)N[C@H]4C[C@@H](O)[C@@H](OCC[N+](C)(C)C)NC(=O)[C@@H]5[C@@H](O)[C@@H](C)CN5C(=O)[C@H]([C@@H](C)O)NC(=O)[C@H]([C@H](O)Cc5ccc(O)cc5)NC(=O)[C@@H]5C[C@@H](O)CN5C(=O)[C@H]([C@@H](C)O)NC4=O)cc3)cc2)cc1 [Compound 2, dehydroxy-RZF] ({pTerphenylCO(4''-OnC5H11)}-[Orn(4R-OH,5R-OCH2CH2NMe3+)]T[Hyp][hTyr(3R-OH)]T[Pro(3S-OH,4S-Me)]; lactam 1-C)", "64 mg/L"]
]}

----------
# System: SF-295
# RUN DESCRIPTION: cells
# Type: cell-based
# ASSAY CONTEXT: Homo sapiens; SF-295 expressing GFP, 24 h, mean ± SD; read-out: IC50 (cell viability)
pIC50: −log10 of the molar value. *1 amine or outer side, *2 acyl side, *3 side chain or, on linkers, in order; H or OH if unused. Where a SMILES comes first, the peptide text is derived from it. Bridges are numbered along the chain shown (N, C = ends). [ ]: non-standard residue; d: D form. The star is where a group is joined. Orn(4R-OH,5R-OCH2CH2NMe3+) = C[N+](C)(C)CCO[C@@H](N[*:3])[C@H](O)C[C@H](N[*:1])C(=O)[*:2]; pTerphenylCO(4''-OnC5H11) = CCCCCOc1ccc(-c2ccc(-c3ccc(C(=O)*)cc3)cc2)cc1; Orn(4R-OH,5R-OH) = O=C([C@H](C[C@@H](O)[C@@H](O)N[*:3])N[*:1])[*:2]; hTyr(3S-OH,4S-OH) = N[C@H](C(=O)O)[C@H](O)[C@@H](O)c1ccc(O)cc1; Pro(3S-OH,4S-Me) = C[C@H]1CN[C@H](C(=O)O)[C@H]1O; hTyr(3R-OH) = N[C@H](C(=O)O)[C@H](O)Cc1ccc(O)cc1; Hyp = O=C(O)[C@@H]1C[C@@H](O)CN1
READOUT KIND: pIC50

{"columns": ["MOLECULE", "RESULT QUALIFIER", "EXPERIMENTAL RESULT"],
 "data": [
  ["CCCCCOc1ccc(-c2ccc(-c3ccc(C(=O)N[C@H]4C[C@@H](O)[C@@H](OCC[N+](C)(C)C)NC(=O)[C@@H]5[C@@H](O)[C@@H](C)CN5C(=O)[C@H]([C@@H](C)O)NC(=O)[C@H]([C@H](O)Cc5ccc(O)cc5)NC(=O)[C@@H]5C[C@@H](O)CN5C(=O)[C@H]([C@@H](C)O)NC4=O)cc3)cc2)cc1 [Compound 2, dehydroxy-RZF] ({pTerphenylCO(4''-OnC5H11)}-[Orn(4R-OH,5R-OCH2CH2NMe3+)]T[Hyp][hTyr(3R-OH)]T[Pro(3S-OH,4S-Me)]; lactam 1-C)", "=", 4.49],
  ["CCCCCOc1ccc(-c2ccc(-c3ccc(C(=O)N[C@H]4C[C@@H](O)[C@@H](O)NC(=O)[C@@H]5[C@@H](O)[C@@H](C)CN5C(=O)[C@H]([C@@H](C)O)NC(=O)[C@H]([C@H](O)[C@@H](O)c5ccc(O)cc5)NC(=O)[C@@H]5C[C@@H](O)CN5C(=O)[C@H]([C@@H](C)O)NC4=O)cc3)cc2)cc1 [ANF, anidulafungin] ({pTerphenylCO(4''-OnC5H11)}-[Orn(4R-OH,5R-OH)]T[Hyp][hTyr(3S-OH,4S-OH)]T[Pro(3S-OH,4S-Me)]; lactam 1-C)", "=", 4.71],
  ["CCCCCOc1ccc(-c2ccc(-c3ccc(C(=O)N[C@H]4C[C@@H](O)[C@@H](O)NC(=O)[C@@H]5[C@@H](O)[C@@H](C)CN5C(=O)[C@H]([C@@H](C)O)NC(=O)[C@H]([C@H](O)Cc5ccc(O)cc5)NC(=O)[C@@H]5C[C@@H](O)CN5C(=O)[C@H]([C@@H](C)O)NC4=O)cc3)cc2)cc1 [Compound 1, dehydroxy-ANF] ({pTerphenylCO(4''-OnC5H11)}-[Orn(4R-OH,5R-OH)]T[Hyp][hTyr(3R-OH)]T[Pro(3S-OH,4S-Me)]; lactam 1-C)", "=", 4.76],
  ["CCCCCOc1ccc(-c2ccc(-c3ccc(C(=O)N[C@H]4C[C@@H](O)[C@@H](OCC[N+](C)(C)C)NC(=O)[C@@H]5[C@@H](O)[C@@H](C)CN5C(=O)[C@H]([C@@H](C)O)NC(=O)[C@H]([C@H](O)[C@@H](O)c5ccc(O)cc5)NC(=O)[C@@H]5C[C@@H](O)CN5C(=O)[C@H]([C@@H](C)O)NC4=O)cc3)cc2)cc1 [RZF, rezafungin] ({pTerphenylCO(4''-OnC5H11)}-[Orn(4R-OH,5R-OCH2CH2NMe3+)]T[Hyp][hTyr(3S-OH,4S-OH)]T[Pro(3S-OH,4S-Me)]; lactam 1-C)", "<", 4.40]
]}

Reference source: paper PMC8991007
